Target: UniProt:Q96RI1
Sequence (Q96RI1 262-486 limits assumed): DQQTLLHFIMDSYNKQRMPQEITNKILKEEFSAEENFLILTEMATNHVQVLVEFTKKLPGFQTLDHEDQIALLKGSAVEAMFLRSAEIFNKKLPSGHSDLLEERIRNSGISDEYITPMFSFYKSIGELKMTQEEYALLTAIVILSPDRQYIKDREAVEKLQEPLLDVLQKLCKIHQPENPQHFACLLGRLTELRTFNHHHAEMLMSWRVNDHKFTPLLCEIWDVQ
Assay: FXR agonistic activity, luciferase assay
Settings: luc2P-GAL4-HEK293 cells transfected with pBIND-FXR, 24 hours
pEC50: −log10 of the molar value.
Quantity: pEC50

Q) Look at this compound and give its reported pEC50. O=C(O)c1cccc(-c2noc(N3[C@@H]4CC[C@H]3C[C@@H](OCc3c(-c5c(Cl)cccc5Cl)noc3C3CC3)C4)n2)c1 [Example 6]
A) > 7.60

Q) Could you share which pEC50 value was measured for Cc1cc(-c2nnc(N3[C@@H]4CC[C@H]3C[C@@H](OCc3c(-c5c(Cl)cccc5Cl)noc3C3CC3)C4)o2)ccc1C(=O)O [Example 17] ?
A) > 7.60

Q) # get_value(readout='pEC50', item= O=C(O)c1ccc(-c2nnc(N3[C@@H]4CC[C@H]3C[C@@H](OCc3c(-c5c(Cl)cccc5Cl)noc3C3CC3)C4)o2)c(F)c1 [Example 16] )
A) 7.00 to 7.30

Q) // pEC50 lookup, key: O=C(O)c1cccc(-c2nnc(N3[C@@H]4CC[C@H]3C[C@@H](OCc3c(-c5ccccc5OC(F)(F)F)noc3C3CC3)C4)o2)c1 [Example 28]
A) > 7.60

Q) I'd like to know its pEC50. The compound in question is O=C(O)c1ccc(-c2nnc(N3[C@@H]4CC[C@H]3C[C@@H](OCc3c(-c5c(Cl)cccc5Cl)noc3C3CC3)C4)o2)cc1F [Example 12]
A) 6.30 to 7.00

Q) I'd like to know its pEC50. The compound in question is Cc1cc(-c2nnc(N3[C@@H]4CC[C@H]3C[C@@H](OCc3c(-c5ccccc5OC(F)(F)F)noc3C3CC3)C4)o2)ccc1C(=O)O [Example 30]
A) > 7.60

Q) // pEC50 lookup, key: O=C(O)c1ccc(-c2noc(N3[C@@H]4CC[C@H]3C[C@@H](OCc3c(-c5c(Cl)cccc5Cl)noc3C3CC3)C4)n2)cc1Cl [Example 2]
A) > 7.60

Q) Find the recorded pEC50 belonging to O=C(O)c1cccc(-c2nnc(N3[C@@H]4CC[C@H]3C[C@@H](OCc3c(-c5c(Cl)cccc5Cl)noc3C3CC3)C4)o2)c1 [Example 15] and report it.
A) > 7.60
